Numbers sourced from ChEMBL document CHEMBL5352439.

tested on: HCT-116; assay: Antiproliferative activity against human HCT-116 cells assessed as inhibition of cell growth at 20 uM incubated for 48 hrs by MTT assay; format: functional
Each record here notes measured inhibition at 20 µM.
Give just the numeric value; % need not be written.

Kindly indicate its recorded inhibition at 20 µM. Item: `NC(=O)c1ccccc1NCc1ccc(NC(=O)Nc2cccc(Cl)c2)cc1`
63.6

Kindly indicate its recorded inhibition at 20 µM. Item: `NC(=O)c1ccccc1OCc1ccc(NC(=O)Nc2cccc(F)c2)cc1`
43

Kindly indicate its recorded inhibition at 20 µM. Item: `NC(=O)c1ccccc1OCc1ccccc1NC(=O)Nc1cccc(Br)c1`
40.4

***
Kindly indicate its recorded inhibition at 20 µM. Item: `NC(=O)c1ccccc1NCc1cccc(NC(=O)Nc2cccc(F)c2)c1`
45.6

Kindly indicate its recorded inhibition at 20 µM. Item: `NC(=O)c1ccccc1NCc1cccc(NC(=O)Nc2cccc(Br)c2)c1`
91

Kindly indicate its recorded inhibition at 20 µM. Item: `NC(=O)c1ccccc1NCc1ccc(NC(=O)Nc2ccccc2)cc1`
41.2

Kindly indicate its recorded inhibition at 20 µM. Item: `NC(=O)c1ccccc1OCc1cccc(NC(=O)Nc2cccc(Cl)c2)c1`
83.3

Kindly indicate its recorded inhibition at 20 µM. Item: `COc1cccc(NC(=O)Nc2ccc(CNc3ccccc3C(N)=O)cc2)c1`
82.3

Kindly indicate its recorded inhibition at 20 µM. Item: `Cc1cccc(NC(=O)Nc2ccccc2COc2ccccc2C(N)=O)c1`
80

Kindly indicate its recorded inhibition at 20 µM. Item: `NC(=O)c1ccccc1NCc1ccccc1NC(=O)Nc1cccc(Br)c1`
29.1

Kindly indicate its recorded inhibition at 20 µM. Item: `NC(=O)c1ccccc1OCc1ccc(NC(=O)Nc2cccc(Cl)c2)cc1`
74

----------
system: HCT-116; assay: Antiproliferative activity against human HCT-116 cells assessed as inhibition of cell growth at 20 uM incubated for 48 hrs by MTT assay; type: functional
Assign class by inhibition at 20 µM: not lower than 40% means y; lower than 40% means n.

Please indicate if the recorded inhibition at 20 µM for `Cc1cccc(NC(=O)Nc2ccc(CNc3ccccc3C(N)=O)cc2)c1` meets or exceeds 40%.
n

***
Please indicate if the recorded inhibition at 20 µM for `NC(=O)c1ccccc1OCc1ccc(NC(=O)Nc2cccc(Br)c2)cc1` meets or exceeds 40%.
y

Please indicate if the recorded inhibition at 20 µM for `Cc1cccc(NC(=O)Nc2ccccc2CNc2ccccc2C(N)=O)c1` meets or exceeds 40%.
y

Please indicate if the recorded inhibition at 20 µM for `COc1cccc(NC(=O)Nc2cccc(COc3ccccc3C(N)=O)c2)c1` meets or exceeds 40%.
n

Please indicate if the recorded inhibition at 20 µM for `NC(=O)c1ccccc1OCc1ccc(NC(=O)Nc2ccccc2)cc1` meets or exceeds 40%.
n

Please indicate if the recorded inhibition at 20 µM for `COc1cccc(NC(=O)Nc2ccccc2CNc2ccccc2C(N)=O)c1` meets or exceeds 40%.
y

Please indicate if the recorded inhibition at 20 µM for `NC(=O)c1ccccc1NCc1cccc(NC(=O)Nc2ccccc2)c1` meets or exceeds 40%.
y

Please indicate if the recorded inhibition at 20 µM for `NC(=O)c1ccccc1OCc1ccccc1NC(=O)Nc1cccc(Cl)c1` meets or exceeds 40%.
y

Please indicate if the recorded inhibition at 20 µM for `NC(=O)c1ccccc1NCc1ccc(NC(=O)Nc2cccc(F)c2)cc1` meets or exceeds 40%.
n

Please indicate if the recorded inhibition at 20 µM for `NC(=O)c1ccccc1NCc1ccccc1NC(=O)Nc1cccc(Cl)c1` meets or exceeds 40%.
y
